Reference for the values: patent US20200199206A1

# TARGET_UNDER_TEST: T1, EF-Biotin (B. anthracis, UniProt P40136 34-800)
# T1 sequence: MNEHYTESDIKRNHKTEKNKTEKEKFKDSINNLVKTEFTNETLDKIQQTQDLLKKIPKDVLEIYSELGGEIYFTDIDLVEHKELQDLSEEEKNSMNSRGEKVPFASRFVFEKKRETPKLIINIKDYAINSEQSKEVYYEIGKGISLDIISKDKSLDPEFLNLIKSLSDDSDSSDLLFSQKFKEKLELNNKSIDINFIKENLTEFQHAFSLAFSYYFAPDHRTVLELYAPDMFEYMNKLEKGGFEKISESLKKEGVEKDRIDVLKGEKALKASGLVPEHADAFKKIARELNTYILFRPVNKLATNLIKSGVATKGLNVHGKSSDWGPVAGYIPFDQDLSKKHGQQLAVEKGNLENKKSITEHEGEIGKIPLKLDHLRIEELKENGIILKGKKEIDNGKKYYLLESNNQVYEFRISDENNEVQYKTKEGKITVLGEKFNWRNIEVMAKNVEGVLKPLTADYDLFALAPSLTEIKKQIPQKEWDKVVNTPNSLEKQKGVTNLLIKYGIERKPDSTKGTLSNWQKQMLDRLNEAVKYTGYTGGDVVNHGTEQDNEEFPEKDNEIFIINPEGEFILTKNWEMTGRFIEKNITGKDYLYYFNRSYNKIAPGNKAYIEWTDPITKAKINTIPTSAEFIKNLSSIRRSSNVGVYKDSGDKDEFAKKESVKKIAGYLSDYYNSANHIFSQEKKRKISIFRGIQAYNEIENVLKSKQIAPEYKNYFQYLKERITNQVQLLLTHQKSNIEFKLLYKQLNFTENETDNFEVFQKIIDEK
Below: a set of entries, each annotated with reported Phage ELISA Ag+/Ag-.
ENDPOINT_LABEL: Phage ELISA Ag+/Ag- (ratio)

>>> measured_result("clone 57 (VHH) VHH: EVQLQASGGGFVQPGGSLRLSCAASGGTSFQTAMGWFRQAPGKEREFVSAISSRQGSHPYYADSVKGRFTISRDNSKNTVYLQMNSLRAEDTATYYCATRMTETRKMYWGQGTQVTVSS")
40.1
>>> measured_result("clone 49 (VHH) VHH: EVQLQASGGGFVQPGGSLRLSCAASGGFFTSSTMGWFRQAPGKEREFVSAISRQHDNAPYYADSVKGRFTISRDNSKNMVYLQMNSLRAEDTATYYCAARNATHKGIYWGQGTQVTVSS")
36.7
>>> measured_result("clone 26 (VHH) VHH: EVQLQASGGGFVQPGGSLRLSCAASGAYSARTTMGWFRQAPGKEREFVSAISAHEGQAPYYADSVKGRFTISRDNSKNTVYLQMNSLRAEDTATYYCATRAHEPKGMYWGQGTQVTVSS")
51.3
>>> measured_result("clone 66 (VHH) VHH: EVQLQASGGGFVQPGGSLRLSCAASGTGSNASAMGWFRQAPGKEREFVSAISRHEGQPPYYADSVKGRFTISRDNSKNTVYLQMNSLRAEDTATYYCAMRYQSHIDIPGDSSPKLMYWGQGTQVTVSS")
51.8
>>> measured_result("clone 41 (VHH) VHH: EVQLQASGGGFVQPGGSLRLSCAASGDTWRTTAMGWFRQAPGKEREFVSAISGGDNRGTYYADSVKGRFTISRDNSKNTVYLQMNSLRAEDTATYYCAGRLNQNGPMYWGQGTQVTVSS")
36.7
>>> measured_result("clone 40 (VHH) VHH: EVQLQASGGGFVQPGGSLRLSCAASGRTFDGSAMGWFRQAPGKEREFVSAISASPSGESYYADSVKGRFTISRDNSKNTVYLQMNSLRAEDTATYYCAGRGRSQKSMYWGQGTQVTVSS")
31.5
